test: activity coefficient (dimensionless); of the first substance listed, at infinite dilution; xn = mol fraction of the nth substance listed; conditions: 358.15 K; 101.33 kPa; Liquid; Chromatography; x1 = 0
// no strictly below 5 in activity coefficient; yes otherwise

compound="C#CCCC [1-pentyne] + C[n+]1ccn(CCCO)c1.N#CN=C=[N-]" label=yes
compound="C=COC(C)=O [vinyl acetate] + C[n+]1ccn(CCCO)c1.N#CN=C=[N-]" label=yes
compound="CCOC(C)(C)C [2-ethoxy-2-methylpropane] + C[n+]1ccn(CCCO)c1.N#CN=C=[N-]" label=yes
compound="C1CCCCCC1 [cycloheptane] + C[N+]1(CCCO)CCOCC1.N#C[N-]C#N" label=yes
compound="CC(C)O [propan-2-ol] + C[n+]1ccn(CCCO)c1.N#CN=C=[N-]" label=no
compound="CCCO [propan-1-ol] + C[N+]1(CCCO)CCOCC1.N#C[N-]C#N" label=no
compound="c1ccsc1 [thiophene] + C[N+]1(CCCO)CCOCC1.N#C[N-]C#N" label=no
compound="C=CCCCCCCCC [1-decene] + C[n+]1ccn(CCCO)c1.N#CN=C=[N-]" label=yes

Field: next compound
query: Given the entry CCCCO [butan-1-ol] + C[N+]1(CCCO)CCOCC1.N#C[N-]C#N , answer whether its activity coefficient meets or surpasses 5.
result: no

---

assay: activity coefficient (dimensionless); of the first substance listed, at infinite dilution; xn = mol fraction of the nth substance listed; settings: 318.15 K; 101.33 kPa; Liquid; Chromatography; x1 = 0
Kindly state activity coefficient for each of the entries shown.
Numbers only.

// solved cases for activity coefficient follow
compound="O [water] + C[n+]1ccn(CCCO)c1.N#CN=C=[N-]" measured=0.35
compound="Cc1ccccc1 [toluene] + C[n+]1ccn(CCCO)c1.N#CN=C=[N-]" measured=7.75
compound="C#CCCCC [1-hexyne] + C[n+]1ccn(CCCO)c1.N#CN=C=[N-]" measured=19.6
compound="O [water] + C[N+]1(CCCO)CCOCC1.N#C[N-]C#N" measured=0.364
compound="CC(C)OC(C)C [diisopropyl ether] + C[n+]1ccn(CCCO)c1.N#CN=C=[N-]" measured=96

Would you be so kind as to report activity coefficient for each listed record?
1. CCOCC [diethyl ether] + C[n+]1ccn(CCCO)c1.N#CN=C=[N-]
2. CCCCCCCCC [nonane] + C[n+]1ccn(CCCO)c1.N#CN=C=[N-]

result:
20.3
1070

Can you give me activity coefficient for all of these, one by one?
1. CCO [ethanol] + C[n+]1ccn(CCCO)c1.N#CN=C=[N-]
2. CCC(=O)OC [methyl propanoate] + C[n+]1ccn(CCCO)c1.N#CN=C=[N-]
3. C1=CCCCC1 [cyclohexene] + C[N+]1(CCCO)CCOCC1.N#C[N-]C#N

result:
1: 1.17; 2: 5.29; 3: 79.1

---

test: activity coefficient (dimensionless); of the first substance listed, at infinite dilution; xn = mol fraction of the nth substance listed; settings: 338.15 K; 101.33 kPa; Liquid; Chromatography; x1 = 0
Strictly below 7 in activity coefficient: 1. Otherwise: -1.

molecule="CCCCCO [pentan-1-ol] + C[N+]1(CCCO)CCOCC1.N#C[N-]C#N" label=-1
molecule="CCCCO [butan-1-ol] + C[n+]1ccn(CCCO)c1.N#CN=C=[N-]" label=1
molecule="CCc1ccccc1 [ethylbenzene] + C[N+]1(CCCO)CCOCC1.N#C[N-]C#N" label=-1
molecule="C#CCCCCCC [1-octyne] + C[n+]1ccn(CCCO)c1.N#CN=C=[N-]" label=-1
molecule="C=CCCCC [hex-1-ene] + C[n+]1ccn(CCCO)c1.N#CN=C=[N-]" label=-1
molecule="C=Cc1ccccc1 [styrene] + C[n+]1ccn(CCCO)c1.N#CN=C=[N-]" label=1

Then this molecule:
query: Please check: activity coefficient for Cc1ccccc1C [1,2-dimethylbenzene] + C[n+]1ccn(CCCO)c1.N#CN=C=[N-] , strictly under 7 or not?
result: -1

---

assay: activity coefficient (dimensionless); of the first substance listed, at infinite dilution; xn = mol fraction of the nth substance listed; conditions: 338.15 K; 101.33 kPa; Liquid; Chromatography; x1 = 0
Could you mark each record Satisfied if its activity coefficient falls strictly under 40, and Not satisfied if it equals or exceeds it?

Past entries and their recorded results:
compound="CCCCO [butan-1-ol] + C[N+]1(CCCO)CCOCC1.N#C[N-]C#N" label=Satisfied
compound="CCCCCCCC [octane] + C[n+]1ccn(CCCO)c1.N#CN=C=[N-]" label="Not satisfied"
compound="COC(C)(C)C [2-methoxy-2-methylpropane] + C[N+]1(CCCO)CCOCC1.N#C[N-]C#N" label="Not satisfied"

Now examine the next entry.
query: is_below(activity coefficient, 40) for C=CCCCCCC [oct-1-ene] + C[n+]1ccn(CCCO)c1.N#CN=C=[N-] ?
result: Not satisfied

---

test: activity coefficient (dimensionless); of the first substance listed, at infinite dilution; xn = mol fraction of the nth substance listed; conditions: 358.15 K; 101.33 kPa; Liquid; Chromatography; x1 = 0
Class assignment keyed on activity coefficient, ranges bottom range: < 4; center range: ≥ 4 and < 40; top range: ≥ 40

Worked examples, 5 compounds total:
compound="CCCCCCC [heptane] + C[n+]1ccn(CCCO)c1.N#CN=C=[N-]" label="top range"
compound="CCOCC [diethyl ether] + C[n+]1ccn(CCCO)c1.N#CN=C=[N-]" label="center range"
compound="COC(C)=O [methyl ethanoate] + C[n+]1ccn(CCCO)c1.N#CN=C=[N-]" label="bottom range"
compound="CCC(=O)CC [pentan-3-one] + C[N+]1(CCCO)CCOCC1.N#C[N-]C#N" label="center range"
compound="C1COCCO1 [1,4-dioxane] + C[n+]1ccn(CCCO)c1.N#CN=C=[N-]" label="bottom range"

query: Determine which band this compound sits in: CC(C)O [propan-2-ol] + C[N+]1(CCCO)CCOCC1.N#C[N-]C#N
result: bottom range

query: Class? Entry: C#CCCCC [1-hexyne] + C[N+]1(CCCO)CCOCC1.N#C[N-]C#N
result: center range

---

experiment: activity coefficient (dimensionless); of the first substance listed, at infinite dilution; xn = mol fraction of the nth substance listed; conditions: 308.15 K; 101.33 kPa; Liquid; Chromatography; x1 = 0
Criterion: activity coefficient meeting or surpassing 200. Met: 1. Not met: -1.

compound="C#CCCCCCC [1-octyne] + C[N+]1(CCCO)CCOCC1.N#C[N-]C#N" label=-1
compound="C1CCCCC1 [cyclohexane] + C[n+]1ccn(CCCO)c1.N#CN=C=[N-]" label=-1

query: Test whether the compound CCCCCCCCC [nonane] + C[N+]1(CCCO)CCOCC1.N#C[N-]C#N records activity coefficient of 200 or higher.
result: 1

query: Record C1CCCCCC1 [cycloheptane] + C[n+]1ccn(CCCO)c1.N#CN=C=[N-] ; criterion: activity coefficient no lower than 200. Met?
result: -1

query: Is activity coefficient for C=CCCCCCC [oct-1-ene] + C[N+]1(CCCO)CCOCC1.N#C[N-]C#N at or above 200?
result: 1

---

experiment: activity coefficient (dimensionless); of the first substance listed, at infinite dilution; xn = mol fraction of the nth substance listed; details: 358.15 K; 101.33 kPa; Liquid; Chromatography; x1 = 0
Label scheme for activity coefficient: lower than 7 is criterion not met, 7 and above is criterion met.

compound="C1CCCCCC1 [cycloheptane] + C[n+]1ccn(CCCO)c1.N#CN=C=[N-]" label="criterion met"
compound="C1CCCCCCC1 [cyclooctane] + C[n+]1ccn(CCCO)c1.N#CN=C=[N-]" label="criterion met"
compound="CC(C)CO [2-methyl-1-propanol] + C[n+]1ccn(CCCO)c1.N#CN=C=[N-]" label="criterion not met"

query: State whether the measured activity coefficient reaches 7, counting equality as reaching it, for C#CCCCCC [1-heptyne] + C[n+]1ccn(CCCO)c1.N#CN=C=[N-]
result: criterion met

query: Textbook exercise: given the entry CCC(C)(C)OC [2-methoxy-2-methylbutane] + C[N+]1(CCCO)CCOCC1.N#C[N-]C#N , state whether its activity coefficient is greater than or equal to 7.
result: criterion met

query: Quick check: does C=C(C)c1ccccc1 [(1-methylethenyl)benzene] + C[n+]1ccn(CCCO)c1.N#CN=C=[N-] have activity coefficient greater than or equal to 7?
result: criterion met

query: Reported activity coefficient at or above 7? CCCCO [butan-1-ol] + C[n+]1ccn(CCCO)c1.N#CN=C=[N-]
result: criterion not met

query: Test whether the compound C=CCCCCCCCC [1-decene] + C[N+]1(CCCO)CCOCC1.N#C[N-]C#N records activity coefficient of 7 or higher.
result: criterion met

query: Reported activity coefficient at or above 7? c1ccncc1 [pyridine] + C[n+]1ccn(CCCO)c1.N#CN=C=[N-]
result: criterion not met

query: Has C#CCCC [1-pentyne] + C[N+]1(CCCO)CCOCC1.N#C[N-]C#N a recorded activity coefficient greater than or equal to 7?
result: criterion met

query: Could you verify whether the entry CCC(=O)CC [pentan-3-one] + C[n+]1ccn(CCCO)c1.N#CN=C=[N-] shows activity coefficient of no less than 7?
result: criterion not met

query: Kindly determine if activity coefficient recorded for CC#N [acetonitrile] + C[N+]1(CCCO)CCOCC1.N#C[N-]C#N is above or exactly 7.
result: criterion not met

query: Answer whether activity coefficient of CCCC=O [butanal] + C[N+]1(CCCO)CCOCC1.N#C[N-]C#N is greater than or equal to 7.
result: criterion not met

query: Record CO [methanol] + C[n+]1ccn(CCCO)c1.N#CN=C=[N-] ; criterion: activity coefficient no lower than 7. Met?
result: criterion not met

query: Confirm if activity coefficient reported for the compound Cc1ccccc1C [1,2-dimethylbenzene] + C[N+]1(CCCO)CCOCC1.N#C[N-]C#N is 7 or above.
result: criterion met

query: Say whether CCCc1ccccc1 [propylbenzene] + C[n+]1ccn(CCCO)c1.N#CN=C=[N-] shows activity coefficient of 7 or more.
result: criterion met

query: Quick check, activity coefficient >= 7? C#CCCCCCC [1-octyne] + C[N+]1(CCCO)CCOCC1.N#C[N-]C#N
result: criterion met
